Parameter MIC: see the listing below.
Tested on: Candida parapsilosis
Experiment: Minimal inhibitory effect against the Candida parapsilosis (2372E).
Type: functional
Conditions: Lodderomyces parapsilosis
Measurement type: MIC

Compound: CC(C)C1=CC2CC3(C=O)[C@@H]4CC[C@@H](C)[C@H]4CC2(CO[C@H]2C[C@@H]4OC[C@@H](C)[C@@H]4[C@@H](C)O2)C13C(=O)O (stereo partly specified)
Value observed: > 125 µg/mL
--
Compound: CC(C)C1=CC2CC3(C=O)[C@@H]4CC[C@@H](C)[C@H]4CC2(CO[C@@H]2O[C@H](C)[C@H]4OC[C@H](C)C4[C@@H]2O)C13C(=O)O (single isomer, unassigned)
Value observed: 125 µg/mL
--
Compound: OC(Cn1cncn1)(Cn1cncn1)c1ccc(F)cc1F
Value observed: 0.5 µg/mL
--
Compound: CC[C@H]1CO[C@H]2C1[C@H](O)[C@H](OCC13C[C@@H]4[C@H](C)CC[C@H]4C4(C=O)CC1C=C(C(C)C)C34C(=O)O)O[C@@H]2C (single isomer, unassigned)
Value observed: 125 µg/mL
--
Compound: CC(C)C1=CC2CC3(C=O)[C@@H]4CC[C@@H](C)[C@H]4CC2(CO[C@H]2C[C@H]4[C@H](OCC4(C)C)[C@@H](C)O2)C13C(=O)O (stereo partly specified)
Value observed: > 125 µg/mL
--
Compound: CC(C)C1=CC2CC3(C=O)[C@@H]4CC[C@@H](C)[C@H]4CC2(CO[C@H]2C[C@@H]4OC[C@H](C)[C@@H]4[C@@H](C)O2)C13C(=O)O (stereo partly specified)
Value observed: > 125 µg/mL
--
Compound: CC[C@@H]1CO[C@H]2[C@@H]1C[C@H](OCC13C[C@@H]4[C@H](C)CC[C@H]4C4(C=O)CC1C=C(C(C)C)C34C(=O)O)O[C@@H]2C (stereo partly specified)
Value observed: > 125 µg/mL
--
Compound: CC(C)C1=CC2CC3(C=O)[C@@H]4CC[C@@H](C)[C@H]4CC2(CO[C@H]2C[C@H]4[C@H](OC[C@H]4C)[C@@H](C)O2)C13C(=O)O (stereo partly specified)
Value observed: > 125 µg/mL
--
Compound: CC[C@H]1CO[C@H]2[C@@H]1C[C@H](OCC13C[C@@H]4[C@H](C)CC[C@H]4C4(C=O)CC1C=C(C(C)C)C34C(=O)O)O[C@@H]2C (stereo partly specified)
Value observed: 4 µg/mL
--
Compound: CC(C)C1=CC2CC3(C=O)[C@@H]4CC[C@@H](C)[C@H]4CC2(CO[C@H]2C[C@@H]4OC(C)(C)O[C@@H]4[C@@H](C)O2)C13C(=O)O (stereo partly specified)
Value observed: > 125 µg/mL
--
Compound: CC(C)C1=CC2CC3(C=O)[C@@H]4CC[C@@H](C)[C@H]4CC2(CO[C@H]2C[C@H]4[C@H](OC[C@@H]4C(C)C)[C@@H](C)O2)C13C(=O)O (stereo partly specified)
Value observed: 16 µg/mL
